# credit: ChEMBL document CHEMBL1961873

molecular target: Tyrosine-protein kinase HCK (Homo sapiens); conditions: at 1 µM;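 also: values are averaged percent inhibition of HCK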
Classification field: y = inhibition at or over 6%; n = inhibition under 6%.

Query: Is inhibition at least 6%? Consider COC(=O)Nc1nc2cc(Oc3ccc(NC(=O)Nc4cccc(C(=O)O)c4)cc3)ccc2[nH]1
Response: n

Query: Is inhibition at least 6%? Consider NS(=O)(=O)c1cccc(-c2ccc3c(NC(=O)C4CC4)n[nH]c3c2)c1
Response: n

Query: Is inhibition at least 6%? Consider Cc1nn(C)c2cc(N(C)c3ccnc(Nc4cccc(S(N)(=O)=O)c4)n3)ccc12
Response: y

Query: Is inhibition at least 6%? Consider CC1=C(C(=O)Nc2ccc3[nH]ncc3c2)C(c2ccc(Cl)c(Cl)c2)CC(=O)N1 (stereo not given)
Response: y

Query: Is inhibition at least 6%? Consider COc1cc2c(cc1Nc1nc(N3CCc4ccccc43)c3cc[nH]c3n1)N(C(=O)CN(C)C)CC2
Response: y

Others:
Query: Is inhibition at least 6%? Consider N#Cc1c(NC(=O)c2cccc3ccccc23)sc2c1CCCC2
Response: y

Query: Is inhibition at least 6%? Consider CC(C)=Cc1cccc2c1/C(=N/Nc1ccc(S(N)(=O)=O)cc1)C(=O)N2
Response: y

Query: Is inhibition at least 6%? Consider NC(=O)c1ccc(-c2nc(-c3ccccn3)c(-c3ccc4c(c3)OCO4)[nH]2)cc1
Response: n

Query: Is inhibition at least 6%? Consider Cc1cc(O)cc(C)c1/C=C/c1cncc(-c2nn[nH]n2)c1
Response: y

Query: Is inhibition at least 6%? Consider c1cnn2ncc(-c3ccnc(Nc4ccc5c(c4)OCCO5)n3)c2c1
Response: y

Query: Is inhibition at least 6%? Consider O=C1NC(=O)C(c2ccccc2Cl)=C1Nc1cccc(O)c1
Response: n

Query: Is inhibition at least 6%? Consider O=C(Nc1n[nH]c2nc(-c3ccco3)c(Br)cc12)C1CC1
Response: y

Query: Is inhibition at least 6%? Consider COc1ccc(-c2nn3ncccc3c2-c2ccnc(Nc3ccc(Cl)c(C(F)(F)F)c3)n2)cc1
Response: n

Query: Is inhibition at least 6%? Consider Nc1ncnc2occ(-c3ccc(NC(=O)Nc4cc(C(F)(F)F)cc(C(F)(F)F)c4)cc3)c12
Response: y

Query: Is inhibition at least 6%? Consider CCn1c(-c2nonc2N)nc2cnc(Oc3cccc(NC(=O)c4ccc(OCCN5CCOCC5)cc4)c3)cc21
Response: n

Query: Is inhibition at least 6%? Consider COc1cc2ncn(-c3cc(O[C@H](C)c4ccccc4Cl)c(C(N)=O)s3)c2cc1OC
Response: y

* * *

system: Epidermal growth factor receptor (Homo sapiens), P00533 [L861Q]; settings: at 0.1 µM
Sequence (P00533 whole entry L861Q): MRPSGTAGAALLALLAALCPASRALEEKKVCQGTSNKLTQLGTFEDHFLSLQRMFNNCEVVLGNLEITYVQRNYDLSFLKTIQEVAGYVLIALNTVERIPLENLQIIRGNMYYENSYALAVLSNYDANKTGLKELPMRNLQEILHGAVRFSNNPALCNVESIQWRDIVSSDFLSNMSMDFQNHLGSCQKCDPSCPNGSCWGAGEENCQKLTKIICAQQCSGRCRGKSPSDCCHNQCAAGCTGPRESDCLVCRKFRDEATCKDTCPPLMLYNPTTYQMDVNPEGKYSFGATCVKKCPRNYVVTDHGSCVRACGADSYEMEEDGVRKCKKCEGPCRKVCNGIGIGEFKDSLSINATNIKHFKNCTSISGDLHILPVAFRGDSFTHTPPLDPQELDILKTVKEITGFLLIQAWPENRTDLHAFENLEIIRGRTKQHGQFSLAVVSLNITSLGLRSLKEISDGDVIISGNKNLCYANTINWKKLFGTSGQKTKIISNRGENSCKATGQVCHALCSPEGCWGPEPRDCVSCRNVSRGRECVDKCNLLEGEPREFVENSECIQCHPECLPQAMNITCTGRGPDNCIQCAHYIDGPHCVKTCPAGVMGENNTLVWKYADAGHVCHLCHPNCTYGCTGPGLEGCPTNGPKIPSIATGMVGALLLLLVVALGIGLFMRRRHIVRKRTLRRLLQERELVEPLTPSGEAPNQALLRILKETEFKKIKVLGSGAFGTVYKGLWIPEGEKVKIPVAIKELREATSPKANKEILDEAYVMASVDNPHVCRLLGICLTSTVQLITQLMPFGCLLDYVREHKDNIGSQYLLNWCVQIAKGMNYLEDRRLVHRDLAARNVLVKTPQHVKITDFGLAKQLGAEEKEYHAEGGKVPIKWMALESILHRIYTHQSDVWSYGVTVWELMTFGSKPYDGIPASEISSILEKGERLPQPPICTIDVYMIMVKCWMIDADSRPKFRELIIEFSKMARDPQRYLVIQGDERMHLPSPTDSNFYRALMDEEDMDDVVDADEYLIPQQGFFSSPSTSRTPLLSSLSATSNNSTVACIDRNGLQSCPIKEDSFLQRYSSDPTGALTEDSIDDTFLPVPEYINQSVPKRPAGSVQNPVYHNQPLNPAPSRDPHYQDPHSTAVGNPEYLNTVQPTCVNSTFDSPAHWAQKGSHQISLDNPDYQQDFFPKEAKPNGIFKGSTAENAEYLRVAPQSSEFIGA
Answer each item with its documented inhibition.
One number for each entry, in %.

Query: May I ask what inhibition has been recorded for NS(=O)(=O)c1cccc(-c2ccc3c(NC(=O)C4CC4)n[nH]c3c2)c1 ?
Response: 1.67

Query: May I ask what inhibition has been recorded for CC(=O)Nc1cccc(C#Cc2cncnc2Nc2ccc(OCc3cccc(F)c3)c(Cl)c2)n1 ?
Response: 29.1

Query: May I ask what inhibition has been recorded for CCn1c(-c2nonc2N)nc2c(C#CC(C)(C)O)nc(OC[C@@H](N)c3ccccc3)cc21 ?
Response: -1.53

// for each compound below, give its inhibition
1. CCn1c(-c2nonc2N)nc2c(N3CCCC3)nccc21
2. CNC(=O)c1cncc(/C=C/c2c(Cl)cccc2Cl)c1
3. COc1cc2c(cc1Nc1nc(N3CCc4ccccc43)c3cc[nH]c3n1)N(C(=O)CN(C)C)CC2
4. NCc1ccc(-c2nc(-c3ccc(Cl)c(O)c3)c(-c3ccncc3)[nH]2)cc1

Response:
1. 0.82
2. 2.27
3. 1.47
4. 1.15
